- System: 786-0 renal
- Assay method text: NCI tumour cell line growth inhibition, 48 h
Form field: TGI (one value per entry).

{"columns": ["Compound", "TGI"],
 "data": [
  ["CC(C)COCC(CN(Cc1ccccc1)c1ccccc1)N1CCCC1 (stereo not drawn)", "12.8 µM"],
  ["Cc1c(C(=O)CC(=O)C(=O)Nc2ccc(Cl)cc2)[n+](=O)c2ccccc2n1[O-]", "> 100 µM"],
  ["OC(CNCC1CCCO1)Cn1c2ccc(Cl)cc2c2cc(Cl)ccc21 (stereo not drawn)", "3.08 µM"],
  ["CCOc1cc2c(cc1O)CC[C@@H]1[C@@H]2CC[C@]2(C)C(N)CC[C@@H]12 (stereo partly drawn)", "13.8 µM"],
  ["Oc1ccccc1CNCC12CC3CC(CC(C3)C1)C2", "33.5 µM"],
  ["O=C(O)NCC1CCCCC1 (tested in a mixture with another compound)", "77.3 µM"],
  ["Cc1ccc(C(=O)Nc2ccc(CP(=O)(O)O)cc2CP(=O)(O)O)cc1NC(=O)c1cccc(NC(=O)Nc2cccc(C(=O)Nc3cc(C(=O)Nc4ccc(CP(=O)(O)O)cc4CP(=O)(O)O)ccc3C)c2)c1", "> 100 µM"],
  ["Cc1ccc(C)n1-c1ccccc1C1C=CN(C(=O)OC(C)(C)C)C=C1", "> 100 µM"],
  ["O=C(c1ccccc1)N1OCCC1Nc1ccc(Br)cc1 (stereo not drawn)", "> 10 µM"],
  ["C[n+]1c2ccccc2c(NC(CS)C(=O)O)c2ccccc21 (stereo not drawn)", "> 100 µM"],
  ["O=Cc1ccccc1B(O)O", "> 100 µM"],
  ["NCCN.NCCN.O=C([O-])CCl.O=C([O-])CCl.[Co+3].[O-][Cl+3]([O-])([O-])[O-]", "> 100 µM"],
  ["O=C1C2C(c3ccccc3)NC(c3ccccc3)C1C(c1ccccc1)NC2c1ccccc1 (stereo not drawn)", "> 100 µM"],
  ["COc1cccc2c1C(=O)c1c(O)c3c(c(O)c1C2=O)C[C@@](O)(C(=O)CO)C[C@@H]3O[C@H]1C[C@H](N)[C@@H](O)[C@H](C)O1", "1.86 µM"],
  ["C=C1C(=O)OC2C=C(CCC(C)=O)C(C)C(OC(C)=O)CC12 (stereo not drawn)", "21.4 µM"],
  ["COc1ccc(CC(=O)NCCc2ccc(OC)c(OC)c2)cc1Br", "> 100 µM"],
  ["COC(=O)[C@@H](NC(=O)N(CCC#N)CCCN(C(=O)N[C@H](Cc1ccccc1)C(=O)OC)c1ccccc1)C(C)C", "> 100 µM"],
  ["S=C1CSc2c(ccc3ccccc23)N1", "> 100 µM"]
]}

----------
- Test system: OVCAR-3 ovarian
- Assay method text: NCI tumour cell line growth inhibition, 48 h

{"columns": ["Compound", "TGI"],
 "data": [
  ["CN1C(=O)C(c2c[nH]c3ccccc23)N(C)C(=O)C1c1c[nH]c2ccccc12 (stereo not given)", "> 100 µM"],
  ["Cc1ccc(/C=C2\\CN(C)CC3C2=NN(c2ccccc2)C3c2ccc(C)cc2)cc1 (stereo not given)", "> 100 µM"],
  ["N#Cc1ccc(C(=O)/C=C/c2ccc(O)c(O)c2)cc1", "29.3 µM"],
  ["O=C(O)NCC1CCCCC1 (tested in a mixture with another compound)", "19.8 µM"],
  ["Oc1ccccc1CNCC12CC3CC(CC(C3)C1)C2", "> 100 µM"],
  ["O=c1oc2cc(N=Cc3ccc4c(c3)OCO4)ccc2c2ccccc12", "> 100 µM"],
  ["CC(C)(C)NCC(O)c1ccc(O)c(CO)n1 (stereo not given)", "> 100 µM"],
  ["COc1cc(Cl)cc(-c2nn(-c3cccc(NC(=O)Nc4cc(C(F)(F)F)cc(C(F)(F)F)c4)c3)cc2-c2ccncc2)c1", "2.04 µM"],
  ["NC1CC(Cl)c2c(Cl)sc(Cl)c21 (stereo not given)", "> 100 µM"],
  ["CNCCNc1c2c(c(NCCNC)c3[nH]ccc13)C(=O)c1ccccc1C2=O", "0.887 µM"]
]}

----------
- System: HT29 colon
- Assay method text: NCI tumour cell line growth inhibition, 48 h
Measured metric: TGI (µM)

{"columns": ["Compound", "Comparator", "Measurement"],
 "data": [
  ["COC(=O)c1cc2cc3c(c(O)c2c(=O)o1)O[C@@]1(Oc2c(O)c4c(c(O)c2[C@H]1OC1CC(OC)C(O)C(C)O1)C(=O)C=C(OC)C4=O)[C@H](O)C3 (stereo partly drawn)", ">", 20.3],
  ["COc1cc([C@H]2CC(=O)C[C@H](c3cc(OC)c(OC)c(OC)c3)C23C(=O)c2ccccc2C3=O)cc(OC)c1OC", ">", 100],
  ["Cc1sc2nc(-c3ccc([N+](=O)[O-])cc3)c(/C=N/N=C(N)N)n2c1C", "=", 1.63],
  ["CC(=O)OCC(=O)[C@@]12OC(C)(C)O[C@@H]1C[C@H]1[C@@H]3CC=C4C[C@@H](O)CC[C@]4(C)[C@H]3CC[C@@]12C", ">", 100],
  ["COc1ccc(/C(=N\\O)c2cc(C)c(OC)c(C)c2)cc1O", "=", 11.8],
  ["CC(=O)c1cccc(Nc2nc3ccc(Cl)cc3c3[nH]c4ccccc4c23)c1", "=", 48.5],
  ["COc1ccc(/C=C2\\N=C(SC)N(CN3CCCCC3)C2=O)cc1", ">", 100],
  ["Cc1cc(Cc2cc(C)cc(C(C)(C)C)c2O)c(O)c(Cc2cc(C)cc(C(C)(C)C)c2O)c1", "=", 7.78]
]}

----------
- System: TK-10 renal
- Assay method text: NCI tumour cell line growth inhibition, 48 h
Form field: TGI (one value per entry).

{"columns": ["Molecule", "TGI"],
 "data": [
  ["CC(=O)C(CN(Cc1ccccc1)Cc1ccccc1)C(c1ccccc1)c1c(O)c2ccccc2oc1=O (stereo not given)", "> 100 µM"],
  ["Oc1[nH]c2c(Br)cccc2c1C1=Nc2ccccc2/C1=N/OCCN1CCCC1", "> 100 µM"],
  ["COc1cc(C(O)C(=O)c2nc3ccc([N+](=O)[O-])cc3[nH]c2=O)ccc1O (stereo not given)", "> 100 µM"],
  ["CCOC(=O)[C@@H]1CCN2CN(c3ccc(OC)cc3)N=C(c3ccccc3)[C@@]12c1ccccc1", "> 100 µM"],
  ["COc1ccc2c(c1)Oc1cc(O)ccc1[C@@H]2c1ccccc1C(=O)NC(C)c1ccccc1 (stereo not given in full)", "50.7 µM"],
  ["CC(=O)N1C(NN(C)C)CCN1c1ccccc1 (stereo not given)", "> 10 µM"],
  ["COC(=O)CN1SC2(SC13C(C)(C)C(=O)C3(C)C)C(C)(C)C(=O)C2(C)C", "> 100 µM"],
  ["COc1ccc(C(=O)O)c2c(=O)c3cccnc3[nH]c12", "> 100 µM"],
  ["O=[N+]([O-])c1cc2c(c([N+](=O)[O-])c1)NCc1ccccc1O2", "> 100 µM"],
  ["COc1cccc(N2C(=O)/C(=C\\c3ccccc3)SC2c2cc(OC)c(OC)c(OC)c2)c1 (stereo not given)", "> 100 µM"],
  ["Cc1c(C(=O)CC(=O)C(=O)Nc2ccc(Cl)cc2)[n+](=O)c2ccccc2n1[O-]", "> 100 µM"],
  ["COc1ccc2c(c1)-c1[nH]c3ccc(OC)cc3c1CC2", "31.5 µM"],
  ["COc1ccc(NC(=O)/C(=N/NC(N)=S)C2C(=O)NC(=S)NC2=O)c(OC)c1", "> 100 µM"],
  ["O=c1nc(NC(c2ccccc2)(c2ccccc2)c2ccccc2)ccn1CCNCCn1ccc(NC(c2ccccc2)(c2ccccc2)c2ccccc2)nc1=O", "60.6 µM"],
  ["O=Cc1ccccc1B(O)O", "> 100 µM"],
  ["COC(=O)CCC1CCC(c2cc(F)ccc2F)(S(=O)(=O)c2ccc(Cl)cc2)CC1 (stereo not given)", "> 100 µM"],
  ["O=C1C=CC2(O)OCCN(CCO)C2=C1 (stereo not given) (tested in a mixture with another compound)", "> 100 µM"],
  ["CC1(C)OC(CP(c2ccccc2)c2ccccc2)C(CP(c2ccccc2)c2ccccc2)O1 (stereo not given)", "> 100 µM"],
  ["CN(C(=O)C1CCCCCC1=O)c1ccccc1Cl (stereo not given)", "> 100 µM"],
  ["O=C(O)C1C(C(=O)O)C23CC2(C(=O)O)C2(C(=O)O)CCC3=C3CCCC312 (stereo not given)", "38.1 µM"]
]}

----------
- Test system: SK-MEL-2 melanoma
- Assay method text: NCI tumour cell line growth inhibition, 48 h
# cutoff 40 µM applies to TGI; >= gives Condition met, < gives Condition not met

{"columns": ["Compound", "Group"],
 "data": [
  ["Oc1ccccc1CNCC12CC3CC(CC(C3)C1)C2", "Condition met"],
  ["COc1cc([C@H]2CC(=O)C[C@H](c3cc(OC)c(OC)c(OC)c3)C23C(=O)c2ccccc2C3=O)cc(OC)c1OC", "Condition met"],
  ["CN(C)CCCNc1c(C#N)[n+]([O-])c2cc(Cl)ccc2[n+]1[O-]", "Condition not met"],
  ["O=C(NC1C=Nc2ccc([N+](=O)[O-])cc2NC1=O)c1cc(Cl)cc([N+](=O)[O-])c1 (stereo not given)", "Condition met"],
  ["CC(=O)N(C(C)=O)n1c(-c2ccccc2)n[nH]c1=O", "Condition met"],
  ["CCCCCCCCCCCCOC1C(C(COC2OC(C3COC(C)(C)O3)C3OC(C)(C)OC23)NC(=O)NS(=O)(=O)c2ccccc2)OC2OC(C)(C)OC21 (stereo not given)", "Condition not met"],
  ["FC(F)(F)c1ccc(C#Cc2ccccc2C#Cc2ccccc2)cc1", "Condition met"],
  ["COC(=O)C1(C(=O)OC)Cc2ccc(C)cc2C2=C1C(=O)c1ccccc1C2=O", "Condition not met"],
  ["C[C@]12CCC(=O)C(O)=C1CC[C@@H]1C2CC[C@]2(C)Nc3c(cnn3-c3ccccc3)CC12 (stereo not given in full)", "Condition met"],
  ["C=CC[C@@]1([C@H](C=C)COCc2ccc(OC)cc2)CC[C@]2(C)OC(C)(C)[C@@H](c3ccccc3)N2C1=S", "Condition met"],
  ["C/C=C1/CCC2c3[nH]c4ccccc4c3CCN2C1 (stereo not given)", "Condition met"],
  ["Cc1cc(NCc2cc(Nc3ccnc4cc(Cl)ccc34)ccc2F)nc(N2CCN(C)CC2)n1", "Condition not met"],
  ["O=S(Nc1ccccc1)c1ccc(Cl)c(Cl)c1 (stereo not given)", "Condition met"],
  ["C=CCc1ccccc1CC1(OCC)OC(=O)c2ccccc21 (stereo not given)", "Condition met"],
  ["O=P(CCCCP(=O)(c1ccccc1)c1ccccc1)(c1ccccc1)c1ccccc1.[Cl][Sn]([Cl])([c]1ccccc1)[c]1ccccc1", "Condition not met"],
  ["COc1cccc(-c2nc3ccccc3c(=O)[nH]2)c1OC", "Condition met"],
  ["COc1cc(Cl)cc(-c2nn(-c3cccc(NC(=O)Nc4cc(C(F)(F)F)cc(C(F)(F)F)c4)c3)cc2-c2ccncc2)c1", "Condition not met"],
  ["O=C(Cc1ccc(Cl)cc1)Nc1ccc2oc(-c3ccccc3)nc2c1", "Condition met"],
  ["CN(C)CCNC(=O)c1cccc2[nH]c(-c3cccnc3)nc12", "Condition met"],
  ["CN1C(=O)C(CC(=O)O)NC1=S (stereo not given)", "Condition met"]
]}
